# phosphorylation enrichment values compiled below
# Assay target: FGFR1 (UniProt P11362)
# Sequence (P11362 whole entry, looked up): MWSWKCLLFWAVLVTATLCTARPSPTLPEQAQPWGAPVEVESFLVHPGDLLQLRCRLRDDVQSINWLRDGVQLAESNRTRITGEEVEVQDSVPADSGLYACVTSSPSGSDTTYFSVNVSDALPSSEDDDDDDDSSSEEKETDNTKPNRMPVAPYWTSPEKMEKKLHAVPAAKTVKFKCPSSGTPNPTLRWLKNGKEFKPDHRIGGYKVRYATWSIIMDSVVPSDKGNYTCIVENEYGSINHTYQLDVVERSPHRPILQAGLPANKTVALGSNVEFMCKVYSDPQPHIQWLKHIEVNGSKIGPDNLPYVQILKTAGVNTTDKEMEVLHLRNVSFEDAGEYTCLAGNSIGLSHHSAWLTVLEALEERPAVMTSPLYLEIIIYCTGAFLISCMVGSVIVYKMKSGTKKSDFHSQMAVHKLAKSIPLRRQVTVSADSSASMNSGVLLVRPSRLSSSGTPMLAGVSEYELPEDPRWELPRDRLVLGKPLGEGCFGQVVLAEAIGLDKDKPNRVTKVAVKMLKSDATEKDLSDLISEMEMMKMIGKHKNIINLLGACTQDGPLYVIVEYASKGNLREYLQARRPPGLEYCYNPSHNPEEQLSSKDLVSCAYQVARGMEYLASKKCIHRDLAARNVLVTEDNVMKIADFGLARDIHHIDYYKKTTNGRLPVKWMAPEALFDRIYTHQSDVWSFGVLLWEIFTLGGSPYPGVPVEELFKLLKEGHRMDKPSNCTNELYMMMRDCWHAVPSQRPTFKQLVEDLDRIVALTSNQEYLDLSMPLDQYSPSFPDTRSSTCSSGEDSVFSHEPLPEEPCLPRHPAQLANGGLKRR
# Assay explanation: phosphorylation enrichment, bacterial display (enrichment ratio); higher = better substrate or ligand; peptides without Tyr show the background
Measured parameter: phosphorylation enrichment

> print(dat)
                       sequence.content            assay.target  experimental.value
 1    SLHPGYNFRFA [P2RX7_Y291_Y288H_YF]  FGFR1 (UniProt P11362)               0.364
 2   PFTDPYFDFEI [ZC3H18_Y371_A368T_YF]  FGFR1 (UniProt P11362)                16.2
 3           RDHFGYRQSVT [CD55_Y245_YF]  FGFR1 (UniProt P11362)               0.471
 4            NTDETYCIDNE [TUBB2B_Y200]  FGFR1 (UniProt P11362)                0.64
 5      VGTKRYMAPDV [ACVRL1_Y375_E379D]  FGFR1 (UniProt P11362)               0.296
 6     SHISGYAALRR [RAPH1_Y1226_T1228A]  FGFR1 (UniProt P11362)               0.361
 7             ASSPVYVPTTR [GATA6_Y188]  FGFR1 (UniProt P11362)               0.323
 8       IHHIDYYKETT [FGFR1_Y653_K656E]  FGFR1 (UniProt P11362)                0.76
 9        EIHTQYEAMAS [GFAP_Y242_R239H]  FGFR1 (UniProt P11362)               0.527
10           LENSTYQFIRV [CRB1_Y760_YF]  FGFR1 (UniProt P11362)                5.63
11        ADFFDYGHGLS [KHDRBS3_Y304_YF]  FGFR1 (UniProt P11362)               0.459
12  NKFTTYLPWLP [C9orf24_Y126_R129W_YF]  FGFR1 (UniProt P11362)                1.43
13        RDMNAYISPSP [MMAA_Y207_R209S]  FGFR1 (UniProt P11362)               0.432
14            KQRKEYMHRRQ [IQGAP2_Y710]  FGFR1 (UniProt P11362)               0.375
15     PFDAEYGGGGG [AKR1B10_Y316_N313D]  FGFR1 (UniProt P11362)                1.16
16     SDFFAYSPVQE [H6PD_Y449_R453Q_YF]  FGFR1 (UniProt P11362)               0.577
17     RNIQQHNSFVS [PRKAR1A_Y373_Y373H]  FGFR1 (UniProt P11362)                0.42
18          VPVDGYISGLL [PAK6_Y81_M76V]  FGFR1 (UniProt P11362)               0.568
19         DLAHKYHGGGG [HBB_Y146_A141D]  FGFR1 (UniProt P11362)                0.43
20        KKYFSYAWPFY [BRDT_Y291_H288Y]  FGFR1 (UniProt P11362)               0.475
21        GKSHIYFWTLD [EML2_Y230_E235D]  FGFR1 (UniProt P11362)                1.07
22              VYYYSYLLKNH [PTEN_Y180]  FGFR1 (UniProt P11362)                4.67
23            PMQLPYDSRWE [PDGFRA_Y582]  FGFR1 (UniProt P11362)               0.523
24        GADAIYDHVNE [UQCR10_Y44_I47V]  FGFR1 (UniProt P11362)               0.456
25        LEAVSYSSPYA [RNLS_Y190_R193P]  FGFR1 (UniProt P11362)               0.697
26      DDSSAYCSVDE [BCKDHA_Y345_R346C]  FGFR1 (UniProt P11362)               0.544
27        FYRNVYHLASV [RBL1_Y796_K794N]  FGFR1 (UniProt P11362)               0.464
28      RRIFSYRGHLW [VHL_Y112_H110Y_YF]  FGFR1 (UniProt P11362)               0.731

###

# Lookup of reported phosphorylation enrichment keyed by entry
# System: Fer (mouse)
# Assay explanation: phosphorylation enrichment, bacterial display (enrichment ratio); higher = better substrate or ligand; peptides without Tyr show the background
Measured parameter: phosphorylation enrichment

> print(dat)
                    sequence.content  assay.target  experimental.value
1           DDLEVYLKHLL [SACS_Y3477]   Fer (mouse)               0.653
2      YYSSEYHCVGG [CTSC_Y345_Y347C]   Fer (mouse)                1.26
3  ILGRTHFVNHE [NEDD4_Y627_Y627H_YF]   Fer (mouse)               0.457
4      VKRNRYKDILP [PTPN12_Y64_K61R]   Fer (mouse)                0.49
5         NKYTTYLPRLP [C9orf24_Y126]   Fer (mouse)                0.38
6      DDPRTYQKYGY [OAS1_Y362_R361T]   Fer (mouse)                0.41
7    SSSGGYGGGFG [KRT19_Y61_A60G_YF]   Fer (mouse)               0.358

###

# Assay target: c-Src SH2;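 further: peptide library displayed on the E. coli surface as eCPX fusions, selected cells deep-sequenced, score is each peptide's frequency after selection divided by its frequency in the input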
# Assay explanation: SH2 binding enrichment of the phosphorylated peptide, bacterial display (enrichment ratio); higher = better substrate or ligand; peptides without Tyr show the background
Measured parameter: SH2 binding enrichment

> print(dat)
                       sequence.content      measured.parameter  experimental.value
 1              EKKDVYKAGEQ [CFH_Y1008]  SH2 binding enrichment               0.596
 2      SSSGGYGGGFG [KRT19_Y61_A60G_YF]  SH2 binding enrichment               0.375
 3          CSRRLYQLTKL [AR_Y858_F857L]  SH2 binding enrichment               0.524
 4          LQTFRYHGHSM [PDHA1_Y289_YF]  SH2 binding enrichment               0.499
 5          LFSINYLHFGE [KDM4C_Y201_YF]  SH2 binding enrichment                1.27
 6            ERWLKYFPIEQ [HS3ST5_Y244]  SH2 binding enrichment               0.729
 7         NTQRPYFKGGG [TYROBP_Y111_YF]  SH2 binding enrichment               0.619
 8       SIKDKHVTALY [KCNH2_Y611_Y611H]  SH2 binding enrichment               0.497
 9         QRRLIYRCQVG [NR2E3_Y81_R76Q]  SH2 binding enrichment               0.606
10               EQYELYCEMGS [CBL_Y371]  SH2 binding enrichment               0.629
11        NVDGKYSYLKV [GRM3_Y478_G475D]  SH2 binding enrichment                3.85
12     SFLSFYTSHVQ [NEFL_Y443_P440L_YF]  SH2 binding enrichment                1.25
13          NIWDSYTTNKV [GNB1_Y85_I80N]  SH2 binding enrichment               0.425
14   SHNELYFEAAE [VANGL1_Y344_E347A_YF]  SH2 binding enrichment               0.544
15  DRSSLYLVAGP [KIAA1614_Y1083_N1078D]  SH2 binding enrichment               0.519
16         GRLGEYDIDEV [SMS_Y134_V132G]  SH2 binding enrichment               0.555
17       TSNQEYLDVSM [FGFR1_Y766_L769V]  SH2 binding enrichment               0.567
18        VPVNGYQPVTA [ROR2_Y824_P828T]  SH2 binding enrichment                 0.6
19            DSGKLYALDVL [INO80_Y1104]  SH2 binding enrichment               0.668
20            GAAMLYYPSVS [GPR143_Y177]  SH2 binding enrichment               0.765
21             KKGIVYIFNGR [ITGAV_Y404]  SH2 binding enrichment                1.86
22        SVVVPFEPPEV [TP53_Y220_Y220F]  SH2 binding enrichment               0.469
23           LENSTYQFIRV [CRB1_Y760_YF]  SH2 binding enrichment               0.546
24       HTEGEYSSLEH [IDH3B_Y171_Q166H]  SH2 binding enrichment                 0.9
25            RMETEYGPSVT [MXRA5_Y2717]  SH2 binding enrichment               0.584
26           EGQKIYIDDNN [PIP4K2A_Y246]  SH2 binding enrichment               0.416
27              VYYYSYLLKNH [PTEN_Y180]  SH2 binding enrichment               0.847
28    ITGNGYYFRVF [MYBPC3_Y1135_I1131T]  SH2 binding enrichment               0.475
29             LYSINYLHFGE [KDM4C_Y201]  SH2 binding enrichment                1.31
